Target: T1, human CD112R on Jurkat CD112R effector cells (human, UniProt Q6DKI7 1-326)
T1 sequence (looked up): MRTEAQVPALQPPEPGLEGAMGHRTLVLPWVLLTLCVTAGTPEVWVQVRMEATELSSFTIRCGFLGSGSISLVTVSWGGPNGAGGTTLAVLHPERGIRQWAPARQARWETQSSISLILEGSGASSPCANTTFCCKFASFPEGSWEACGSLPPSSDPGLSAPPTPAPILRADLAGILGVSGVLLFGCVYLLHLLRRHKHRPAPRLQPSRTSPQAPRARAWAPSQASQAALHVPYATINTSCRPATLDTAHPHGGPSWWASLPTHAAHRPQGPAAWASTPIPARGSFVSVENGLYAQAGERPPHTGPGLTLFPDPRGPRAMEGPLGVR
Assay: cell-based or functional assay
readout_type: EC50, CD112R/CD112 reporter (µg/mL)
Please give a number only; it is taken to be in µg/mL.

Requested field: EC50, CD112R/CD112 reporter. Item: Chi-70 (antibody, V domains shown, chimeric) VH: DVQLVESGGGLVKLGGSLKLSCVASGFTFSSYHMSWIRQTPEKRLELVAAINSNDINTYYLDTVKGRFTISRDIAKNTLHLQMSSLKSEDTALYYCARHEDYYGFAMDYWGQGTSVTVSS VL: SIVMTQTPKFLLVSAGDRVTITCKASQSVSNDVAWYQQKPGQSPKLLMYYVSNRFTGVPDRFTGSGYGTDFTFTINTVQAEDLAVYFCQQAYRSPWTFGGGTKLEIK 0.0139
